# study target: K2P2.1(TREK-1) G137I (Mus musculus, UniProt P97438, G152I)
# Sequence (P97438 1-411 isoform P97438-2 G137I): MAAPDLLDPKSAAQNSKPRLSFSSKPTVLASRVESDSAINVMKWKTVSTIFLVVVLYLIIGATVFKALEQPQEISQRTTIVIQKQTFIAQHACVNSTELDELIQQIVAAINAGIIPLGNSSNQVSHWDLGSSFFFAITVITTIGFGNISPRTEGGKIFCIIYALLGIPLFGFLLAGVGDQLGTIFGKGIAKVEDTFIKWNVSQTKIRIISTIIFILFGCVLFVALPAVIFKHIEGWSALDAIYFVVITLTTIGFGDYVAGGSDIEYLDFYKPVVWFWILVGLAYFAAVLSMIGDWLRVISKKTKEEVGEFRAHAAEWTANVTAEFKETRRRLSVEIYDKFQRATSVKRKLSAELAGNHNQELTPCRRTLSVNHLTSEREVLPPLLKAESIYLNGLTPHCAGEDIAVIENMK
# assay text: TEVC of C-type gate activating mutant G137I
# condition notes: Xenopus oocytes
reported property: EC50

# compound, reported property, observed value
records = [
    ("c1ccc(-c2nnn[nH]2)c(Nc2cccc3c2CCCC3)c1 [BL-1249]", "EC50", "> 60 µM"),
]

// provenance: paper PMC6302903
